- Test system: L-phenylserine aldolase
- PROTOCOL_DESCRIPTION: Substrate specificity of purified L-phenylserine aldolase under the standard assay conditions
- SETTINGS: compound as substrate; activity to DL-threo-β-phenyl serine taken as 100; purified enzyme, standard assay conditions
MEASURE: Relative activity
Simply state the number, no unit and no words.

Some entries whose results are on file:
[[record]]
compound = "N[C@@H](C(=O)O)[C@@H](O)c1ccccc1 (racemic)"
target_or_test_system = "L-phenylserine aldolase"
measure = "Relative activity"
obs_value = 100

[[record]]
compound = "NCC(O)c1ccccc1 (racemic) [DL-β-hydroxyphenylethylamine]"
target_or_test_system = "L-phenylserine aldolase"
measure = "Relative activity"
obs_value = 0

[[record]]
compound = "CCC(O)C(N)C(=O)O (racemic) [DL-β-hydroxynorvaline]"
target_or_test_system = "L-phenylserine aldolase"
measure = "Relative activity"
obs_value = 0

[[record]]
compound = "N[C@@H](CO)C(=O)O"
target_or_test_system = "L-phenylserine aldolase"
measure = "Relative activity"
obs_value = 0

[[record]]
compound = "C[C@H](O)[C@@H](N)C(=O)O"
target_or_test_system = "L-phenylserine aldolase"
measure = "Relative activity"
obs_value = 0


May I ask what Relative activity has been recorded for `C[C@@H](O)[C@H](N)C(=O)O` ?
2.1

May I ask what Relative activity has been recorded for `O=C(O)[C@@H](O)Cc1ccccc1` ?
0

May I ask what Relative activity has been recorded for N[C@@H](C(=O)O)[C@H](O)c1ccccc1 (racemic) ?
130

May I ask what Relative activity has been recorded for `C[C@H](O)[C@H](N)C(=O)O` ?
8

May I ask what Relative activity has been recorded for `N[C@H](CO)C(=O)O` ?
0

May I ask what Relative activity has been recorded for `C[C@@H](O)[C@@H](N)C(=O)O` ?
0

Origin of the recorded values: patent US20060009524A1
